Listing of entries alongside the reported Growth Rate.
# Test system: HEK-293T
# experiment description: Incucyte cell viability with HEK293T; also: filed as whole numbers so only -1 and 0 and 1 occur
# Format: toxicity, cell-based
# condition details: human, 18 h, 10 µM, compound concentration 10 uM, replicate number 1, timepoint 18 hours
Just the number, please.

INSERT INTO results (compound, test_target, observable, assay_value) VALUES
  ('CN1C(=O)c2sccc2N(C)c2nc(Nc3ccc(S(N)(=O)=O)cc3)ncc21', 'HEK-293T', 'Growth Rate', 0),
  ('Clc1cccc(-c2nnnn2Cc2cccnc2)c1Cl', 'HEK-293T', 'Growth Rate', 1),
  ('CNCCN1CCC(OCc2ccccc2)CC1', 'HEK-293T', 'Growth Rate', 1),
  ('CC[C@H](C)C(=O)O[C@H]1C[C@@H](C)C=C2C=C[C@H](C)[C@H](CC[C@@H]3C[C@@H](O)CC(=O)O3)[C@H]21 [LOVASTATIN]', 'HEK-293T', 'Growth Rate', 0),
  ('CC(C)NCC(O)COc1ccc(CCOCC2CC2)cc1.Cl (centres undefined) [BETAXOLOL HYDROCHLORIDE]', 'HEK-293T', 'Growth Rate', 0);

Return the recorded Growth Rate value; entry: CN(C)c1ncnc(-c2ccc3nc(Nc4cc(CN5CCN(C(=O)CC(F)(F)F)CC5)ccn4)[nH]c3c2)c1Cl [BAY-440] 0

Return the recorded Growth Rate value; entry: CCn1cc(-c2cccc(C(F)(F)F)c2)c2sc(C(=N)NC3CCS(=O)(=O)CC3)cc2c1=O 0

Return the recorded Growth Rate value; entry: Nc1nc(NCc2ccccc2)nc(-c2ccccc2CO)n1 [Ogerin] 1

Return the recorded Growth Rate value; entry: C[C@H](Cc1cc2c(c(C(N)=O)c1)N(CCCO)CC2)NCCOc1ccccc1OCC(F)(F)F [SILODOSIN] 0

* * *

# System: Fibroblast
# experiment description: Multiplex assay against human fibroblast
# Type: toxicity, cell-based
# condition details: 48 h, 10 µM, compound concentration 10 uM, replicate 2
Flag rule - Total Cell Count less than 200 flags class 1; the remaining entries get class 0.

INSERT INTO assay_data (compound, test_target, cat) VALUES
  ('CN(C)CC#Cc1ccc(OCCCc2sc(N3CCc4cccc(C(=O)Nc5nc6ccccc6s5)c4C3)nc2C(=O)O)c(F)c1', 'Fibroblast', 'class 1'),
  ('CN1CCC[C@@H]1CCO[C@](C)(c1ccccc1)c1ccc(Cl)cc1.O=C(O)/C=C/C(=O)O [CLEMASTINE FUMARATE]', 'Fibroblast', 'class 0'),
  ('C=CC(=O)Nc1cccc(C(=O)Nc2ccc(Nc3cc(-c4[nH]c(SC)nc4C)ccn3)cc2)c1', 'Fibroblast', 'class 1');

hey, is Total Cell Count for Cn1cc(-c2[nH]c3cc(NC(=O)[C@H](N)C4CCCCC4)cc4c3c2C=NNC4=O)cn1 lower than 200 or not? class 1

hey, is Total Cell Count for C[C@@]1(C(=O)Nc2ccc(F)nc2)CCCN1c1nc(Nc2cc(C3CC3)n[nH]2)c2cccn2n1 lower than 200 or not? class 1

hey, is Total Cell Count for CC(C)NCC(O)COc1ccc(CCOCC2CC2)cc1.Cl (stereo unspecified) [BETAXOLOL HYDROCHLORIDE] lower than 200 or not? class 0

hey, is Total Cell Count for CC[C@H](C)C(=O)O[C@H]1C[C@@H](C)C=C2C=C[C@H](C)[C@H](CC[C@@H]3C[C@@H](O)CC(=O)O3)[C@H]21 lower than 200 or not? class 1

hey, is Total Cell Count for CN1CCCC(n2nc(Cc3ccc(Cl)cc3)c3ccccc3c2=O)CC1.Cl (stereo unspecified) [AZELASTINE HYDROCHLORIDE] lower than 200 or not? class 0

hey, is Total Cell Count for CCn1c(=O)c(-c2ccc(Cl)cc2Cl)cc2cnc(Nc3ccc(N4CCNCC4)c(F)c3)nc21 lower than 200 or not? class 0

hey, is Total Cell Count for NC(=O)Nc1cc(-c2cccc(F)c2)sc1C(=O)N[C@H]1CCCNC1 lower than 200 or not? class 1

hey, is Total Cell Count for Cl.N#Cc1ccc2[nH]cc(CCCCN3CCN(c4ccc5oc(C(N)=O)cc5c4)CC3)c2c1 [VILAZODONE HYDROCHLORIDE] lower than 200 or not? class 0

hey, is Total Cell Count for COc1cc2nccc(Oc3ccc(NC(=O)Nc4cc(C)on4)c(Cl)c3)c2cc1OC.O lower than 200 or not? class 1

hey, is Total Cell Count for O=C1NCN(c2ccccc2)C12CCN(CCCOc1ccc(F)cc1)CC2 [SPIRAMIDE] lower than 200 or not? class 1

hey, is Total Cell Count for Cc1cc(C)cc(-c2cnc3cc(Cl)c(-c4cccc(O)c4)cc3c2OCCCN)c1 lower than 200 or not? class 1

hey, is Total Cell Count for CN(C)C(=O)N[C@H]1CC[C@H](CCN2CCN(c3cccc(Cl)c3Cl)CC2)CC1.Cl [CARIPRAZINE HYDROCHLORIDE] lower than 200 or not? class 1

* * *

# Test system: U2OS
# experiment description: Multiplex assay against U2OS
# Type: toxicity, cell-based
# condition details: human, 24 h, 10 µM, compound concentration 10 uM, replicate 2
yes means recorded Population Healthy Nuclei (%) is 50% or above; no means it is below 50%.

Below, 3 compounds whose answers are already recorded.
INSERT INTO measurements (compound, cat) VALUES
  ('CC[C@H](C)C(=O)O[C@H]1C[C@@H](C)C=C2C=C[C@H](C)[C@H](CC[C@@H]3C[C@@H](O)CC(=O)O3)[C@H]21', 'yes'),
  ('C[C@@H](NCCCc1cccc(C(F)(F)F)c1)c1cccc2ccccc12.Cl [CINACALCET HYDROCHLORIDE]', 'no'),
  ('COc1cc(-n2cnc3cc(-c4ccc(Cl)cc4)sc3c2=O)ccc1OCCN1CCCC1', 'yes');

Does the compound Cl.N#Cc1ccc2[nH]cc(CCCCN3CCN(c4ccc5oc(C(N)=O)cc5c4)CC3)c2c1 [VILAZODONE HYDROCHLORIDE] have recorded Population Healthy Nuclei (%) that is 50% or more? no

Does the compound C=CC(=O)Nc1cccc(C(=O)Nc2ccc(Nc3cc(-c4[nH]c(SC)nc4C)ccn3)cc2)c1 have recorded Population Healthy Nuclei (%) that is 50% or more? yes

Does the compound CN1CCN(CCOc2cc(OC3CCOCC3)c3c(Nc4c(Cl)ccc5c4OCO5)ncnc3c2)CC1 have recorded Population Healthy Nuclei (%) that is 50% or more? yes

Does the compound CN1CCC[C@@H]1CCO[C@](C)(c1ccccc1)c1ccc(Cl)cc1.O=C(O)/C=C/C(=O)O [CLEMASTINE FUMARATE] have recorded Population Healthy Nuclei (%) that is 50% or more? no

Does the compound COc1cccc([C@@H](C)NCCCc2ccccc2Cl)c1.Cl [TECALCET HYDROCHLORIDE] have recorded Population Healthy Nuclei (%) that is 50% or more? yes

Does the compound CN1C(=O)c2sccc2N(C)c2nc(Nc3ccc(S(N)(=O)=O)cc3)ncc21 have recorded Population Healthy Nuclei (%) that is 50% or more? yes

Does the compound CC(C)NCC(O)COc1ccc(CCOCC2CC2)cc1.Cl (configuration not stated) [BETAXOLOL HYDROCHLORIDE] have recorded Population Healthy Nuclei (%) that is 50% or more? yes

Does the compound Cc1cc(C)cc(-c2cnc3cc(Cl)c(-c4cccc(O)c4)cc3c2OCCCN)c1 have recorded Population Healthy Nuclei (%) that is 50% or more? no

Does the compound Cc1nc(-c2ccc(-c3ccc(C(=O)N4CCc5cc6c(cc54)C4(CCN(C)CC4)CO6)cc3)c(C)c2)no1 have recorded Population Healthy Nuclei (%) that is 50% or more? yes

Does the compound Cc1c(-c2ccc(O)cc2)n(Cc2ccc(OCCN3CCCCCC3)cc2)c2ccc(O)cc12 have recorded Population Healthy Nuclei (%) that is 50% or more? no

Does the compound OC1(c2ccc(Cl)cc2)CCN(Cc2c[nH]c3ccccc23)CC1 have recorded Population Healthy Nuclei (%) that is 50% or more? no

Does the compound CN1CCN(c2ccc(OC(F)(F)F)c(Nc3ncc4c(n3)-c3c(c(C(N)=O)nn3CCO)CC4)c2)CC1 have recorded Population Healthy Nuclei (%) that is 50% or more? yes

Does the compound CN(C)C(=O)/C(C#N)=C/c1ccc(-c2nc3cnc4[nH]ccc4c3n2C2CCCCC2)o1 have recorded Population Healthy Nuclei (%) that is 50% or more? yes

Does the compound C=CC(=O)Nc1cc2c(Nc3ccc(F)c(Cl)c3)ncnc2cc1OCCCN1CCOCC1.Cl.Cl [CANERTINIB DIHYDROCHLORIDE] have recorded Population Healthy Nuclei (%) that is 50% or more? yes

Does the compound CCN(CC)CCCCNc1ncc2cc(-c3cc(OC)cc(OC)c3)c(NC(=O)NC(C)(C)C)nc2n1 have recorded Population Healthy Nuclei (%) that is 50% or more? no

Does the compound Cn1cc(-c2[nH]c3cc(NC(=O)[C@H](N)C4CCCCC4)cc4c3c2C=NNC4=O)cn1 have recorded Population Healthy Nuclei (%) that is 50% or more? no

Does the compound Cc1[nH]c(/C=C2\C(=O)Nc3ccc(S(=O)(=O)N(C)c4cccc(Cl)c4)cc32)c(C)c1C(=O)N1CCN(C)CC1 have recorded Population Healthy Nuclei (%) that is 50% or more? yes

Does the compound CN(C)CC#Cc1ccc(OCCCc2sc(N3CCc4cccc(C(=O)Nc5nc6ccccc6s5)c4C3)nc2C(=O)O)c(F)c1 have recorded Population Healthy Nuclei (%) that is 50% or more? no

Where these numbers come from: ChEMBL document CHEMBL4689842
